Numbers sourced from paper PMC2836884.

- Type: in vivo, human
- experimental-parameters: both, human, plasma, po, 8 mg/kg

compound: Nc1nc(NC2CC2)c2ncn([C@H]3C=C[C@@H](CO)C3)c2n1 [ABC, Abacavir]
Tmax: 1 h
